conditions: in ethanol, 288.15 K

{"molecule": "CC(C)(C)C(=O)C(Oc1ccc(Cl)cc1)n1ccnc1 (stereo unspecified)", "solubility (mole fraction)": 0.112}

====

settings: in acetone, 298.15 K

{"molecule": "CC(C)(C)C(=O)C(Oc1ccc(Cl)cc1)n1ccnc1 (stereo unspecified)", "solubility (mole fraction)": 0.185}
